Tested on: HCT-116 colon
assay: NCI-60 one-dose screen, 48 h (100 = growth as untreated, 0 = no growth, -100 = all killed)
run-conditions: 10 µM unless noted
This is part of a sample that, as a whole, favours compounds with a hit. Of some 83,000 tested, about 20% had one in any assay.
Note to self: use yes (1) only for growth readings below 20%; a reading exactly at 20% still gets no (0).

Is growth of `CC(C)CSc1nc(Nc2ccccc2)c(C#N)c(-c2ccc(F)cc2)n1` strictly below 20%? yes (1)

Is growth of `COc1cc2cc(c1Cl)N(C)C(=O)C[C@H](OC(=O)[C@H](C)N(C)C(=O)CCS)C[C@]1(C)O[C@H]1[C@H](C)[C@@H]1C[C@@](O)(NC(=O)O1)[C@H](OC)/C=C/C=C(\C)C2` strictly below 20%? yes (1)

Is growth of `Cc1nccc2c3ccc(OCc4cn(-c5ccc(Br)cc5)nn4)cc3n(CC(C)C)c12` strictly below 20%? no (0)

Is growth of Nc1ccc(C2=NN(C(=O)c3cc(-c4ccc(Cl)cc4)nc4ccccc34)C(c3ccccc3)C2)cc1 (stereo not drawn) strictly below 20%? no (0)

Is growth of `O=C(O)c1cn(C2CC2)c2cc(N3CCN(C(=O)CSc4nnc(-c5ccc(Cl)cc5)n4-c4ccccc4)CC3)c(F)cc2c1=O` strictly below 20%? no (0)

Is growth of `CCOC(=O)C1CCN(S(=O)(=O)/N=C2/NC(=O)NC2=C(Cl)Cl)CC1` strictly below 20%? yes (1)

Is growth of `O=C(Nc1nc2ccc(C(F)(F)F)cc2s1)c1cc(Cl)ccc1O` strictly below 20%? yes (1)

Is growth of CCCCC(=O)Nc1c(C(=O)Nc2ccccc2)sc2nc3c(cc12)C(OC(=O)CCCC)CCC3 (stereo not drawn) strictly below 20%? no (0)

Is growth of `O=C(/C(=C\c1c(-c2ccccc2)[nH]c2ccccc12)S(=O)(=O)c1ccccc1)c1ccccc1` strictly below 20%? no (0)

Is growth of O=CN1N=C(c2ccc3c(c2)OCO3)CC1c1cccc(Nc2ccnc3cc(C(F)(F)F)ccc23)c1 (stereo not drawn) strictly below 20%? no (0)

Is growth of `CC(C)(C)c1nn(-c2ccccc2)c2c1COCN2Cc1ccc(Cl)cc1` strictly below 20%? no (0)

Is growth of `C=C1C(=O)O[C@H]2[C@H]1CC/C(COC(=O)c1c[nH]c3ccccc13)=C\CC[C@@]1(C)O[C@@H]21` strictly below 20%? yes (1)

Is growth of `Nc1c(C(=O)Nc2cccc3ccccc23)sc2nc3c(cc12)COCC3` strictly below 20%? no (0)

Is growth of `CC1=C/C(=N\N=C2/C=C(C)CC(C)(C)C2)CC(C)(C)C1` strictly below 20%? no (0)

Is growth of `CCOC(=O)c1cnn(-c2nc(-c3ccc(F)cc3)c(C#N)c(N3CCOCC3)n2)c1N` strictly below 20%? no (0)

Is growth of `Cc1ccn2c3c(c(C(=O)O)c2c1)C(=O)c1ccccc1C3=O` strictly below 20%? no (0)

Is growth of `COC(=O)CCc1n(Cc2ccc3ccccc3c2)c2ccccc2[n+]1Cc1ccc2ccccc2c1` strictly below 20%? yes (1)

Is growth of `Cc1cc(C)nc(NS(=O)(=O)c2ccc(Nc3ccc4c5c(n(CCCN(C)C)c(=O)c4c3)-c3ccccc3C5=O)cc2)n1` strictly below 20%? no (0)

meta.source: PubChem BioAssay (NCI)
